Source: PubChem BioAssay AID1159580

Entries and their measured normalized growth follow.
Assay: chemical genetic growth profiling, strain panel (AID 1159580);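 note: tested at 20 µM; growth read once vehicle control cultures reached saturation at 30 °C; 1 = growth at the plate median or of vehicle wells; lower values mean less growth of the strain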
Conditions: S. cerevisiae deletion strains, growth OD, locus YNL233W, strain BNI4, active compounds read low
In all, about 5,500 compounds went through this assay and about 2,000 (36%) were called active. Roughly 18% stayed inconclusive and do not appear here. The list shows a part of the results.
measured.attribute: normalized growth

>>> df
                                    molecule  assay_result
 0  CCN(CC)CCCC(C)Nc1ccnc2cc(Cl)ccc12 (stereo unspecified)          1.03
 1  COc1cc2c(cc1OC)[C@@H]1C(=O)c3ccc(O)c(CC=C(C)C)c3O[C@@H]1CO2         0.947
 2  COc1cc2c(cc1OC)C1C(=O)c3c(O)cc4c(c3OC1CO2)C=CC(C)(C)O4 (stereo unspecified)          1.01
 3     OCC(O)C(O)C(O)CO (stereo unspecified)          1.02
 4     CC(=O)NC1SCCC1=O (stereo unspecified)         0.984
 5       CN(C)CC/C=C1\c2ccccc2Sc2ccc(Cl)cc21         0.891
 6  COc1cc2c(cc1OC)C1C(=O)c3c(OC)cc4c(c3OC1CO2)CCC(C)(C)O4 (stereo unspecified)          1.04
 7  CCN(CCO)CCCC(C)Nc1ccnc2cc(Cl)ccc12 (stereo unspecified)          1.01
 8                         CC1(C)OC(=O)NC1=O         0.983
 9  COc1ccc2c3c1O[C@H]1C[C@@H](O)C=C[C@@]31CCN(C)C2         0.995
10  CCN(CC)CCCC(C)Nc1c2ccc(Cl)cc2nc2ccc(OC)cc12 (stereo unspecified)         0.756
